These data points were gathered from paper PMC10600239.

Assay: Phase 1 first-in-human study (NCT04178902): pharmacokinetics
Assay type: in vivo
Settings: human, in vivo, 0.265 mg/kg, Cycle 1 Day 1, DOSE_MGKG 0.265, cohort 3, PKTIME 2.5; read-out: CONC_NGML
Source text: Other eligibility criteria included: Eastern Cooperative Oncology Group performance status ≤2, measurable disease as defined by International Myeloma Working Group (IMWG) consensus criteria, an echocardiogram with an ejection fraction ≥50%, and adequate hematologic, hepatic, and renal function. […]

compound	concentration at […]
Cc1c(Cl)c2c(Cl)c(C)c1-c1c(-c3ccc(F)cc3)sc3ncnc(c13)O[C@@H](C(=O)O)Cc1cc(ccc1OCc1ccnc(-c3ccc(OC[C@H]4COCCO4)cc3)n1)OC[C@@H](CN1CCN(C)CC1)O2 [ABBV-467]	8.88 ng/mL
